- tested-on: human CYP2D6 (Homo sapiens, UniProt P10635)
- Sequence (P10635 whole entry): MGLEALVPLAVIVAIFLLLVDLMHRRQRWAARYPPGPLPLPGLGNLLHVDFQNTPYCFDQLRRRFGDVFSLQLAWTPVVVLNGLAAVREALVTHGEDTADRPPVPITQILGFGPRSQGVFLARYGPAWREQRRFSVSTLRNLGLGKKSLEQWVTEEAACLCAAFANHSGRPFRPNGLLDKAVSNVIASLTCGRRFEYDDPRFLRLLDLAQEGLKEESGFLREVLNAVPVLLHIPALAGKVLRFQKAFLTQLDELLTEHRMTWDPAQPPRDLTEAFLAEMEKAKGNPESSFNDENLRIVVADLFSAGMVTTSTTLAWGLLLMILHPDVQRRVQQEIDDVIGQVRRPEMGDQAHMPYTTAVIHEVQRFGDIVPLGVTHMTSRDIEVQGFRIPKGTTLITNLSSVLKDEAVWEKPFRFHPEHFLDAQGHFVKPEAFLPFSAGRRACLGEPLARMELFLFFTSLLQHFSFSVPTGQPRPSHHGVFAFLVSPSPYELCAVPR
reported-property: CYP2D6 AC50 (half-maximal activity concentration)

Answered examples (8):
# compound, observed-result
records = [
    ("C1CC(COCC2CO2)CCC1COCC1CO1 (stereo not shown)", "Inactive"),
    ("CCCCC(C=O)CC (stereo not shown)", "Inactive"),
    ("Clc1nnc(Cl)c2ccccc12", "Inconclusive inhibitor"),
    ("N#Cc1c[nH]cc1-c1cccc2c1OC(F)(F)O2", "Inactive"),
    ("O=C(O)Cc1cc(I)c(Oc2cc(I)c(O)c(I)c2)c(I)c1", "Inactive"),
    ("CCCOC(=O)c1ccc(C(=O)OCCC)nc1 [Dipropyl 2,5-pyridinedicarboxylate]", "Inactive"),
    ("OCc1cccc(Oc2ccccc2)c1", "Inconclusive inhibitor"),
    ("O=C(NC(=O)c1c(F)cccc1F)Nc1cc(Cl)c(OC(F)(F)C(F)C(F)(F)F)cc1Cl (stereo not shown)", "Inactive"),
]

Task: Missing value: CYP2D6 AC50 (half-maximal activity concentration), human CYP2D6 (Homo sapiens, UniProt P10635), entry CCCCCCCCC(CCCCCC)C(=O)O (stereo not shown) . Fill in?
Output: Inactive

Task: Form field: CYP2D6 AC50 (half-maximal activity concentration) recorded for CCOC(=O)Cc1cccc2ccccc12 [Ethyl 1-naphthaleneacetate] with human CYP2D6 (Homo sapiens, UniProt P10635) (enter value)
Output: Inactive
